tested.system: HLA-A*03:01
procedure.text: IEDB peptide-MHC binding, purified MHC/competitive/radioactivity; filed as Kd, often an IC50 or EC50 that approximates it; bounds were set here for any values at or beyond the usual limits of such assays
run.parameters: source organism: Vaccinia virus WR
pKd: −log10 of the molar value.
Please use the following pKd ranges when assigning a class: L = under 6, M = from 6 up to 7, H = 7 and over

[[record]]
primary_sequence = "YIIRVTTEL"
label = "L"

[[record]]
primary_sequence = "EIINDKGKQY"
label = "L"

[[record]]
primary_sequence = "LFSKNILKY"
label = "M"

[[record]]
primary_sequence = "LSCAVHLIIY"
label = "L"

[[record]]
primary_sequence = "TIISEEYLSK"
label = "H"

[[record]]
primary_sequence = "GINNVQSLIK"
label = "M"


**Q:** Please classify: DIALALEQY
**A:** L

**Q:** Please classify: TVKMGAFMY
**A:** M

**Q:** Please classify: LLNETAKVIK
**A:** L

**Q:** Please classify: STSAADIKR
**A:** L

**Q:** Please classify: FMVSVSDFR
**A:** L

**Q:** Please classify: GMNDYLGIFK
**A:** H

**Q:** Please classify: QLLKILDNLR
**A:** L

**Q:** Please classify: IIDAKNDDWK
**A:** L

**Q:** Please classify: MSRVRISLIY
**A:** M

**Q:** Please classify: VFKGFSDKVR
**A:** L

**Q:** Please classify: MTLVPVLEKK
**A:** H

**Q:** Please classify: LVTRKCPQKK
**A:** L

**Q:** Please classify: TTYDFLARK
**A:** H

**Q:** Please classify: TSLAIKNYY
**A:** L

**Q:** Please classify: EMVDELVTR
**A:** L

**Q:** Please classify: DTSASEIKDR
**A:** L

**Q:** Please classify: QQFANVISK
**A:** H

**Q:** Please classify: LMWNKQFIK
**A:** H

**Q:** Please classify: MSRGYFEHMK
**A:** H

**Q:** Please classify: KAGNILFWPY
**A:** M

**Q:** Please classify: DFWRLYNSLK
**A:** L

* * *

// reported pKd for each item listed
tested.system: HLA-A*03:01
procedure.text: IEDB peptide-MHC binding, purified MHC/competitive/radioactivity; filed as Kd, often an IC50 or EC50 that approximates it; bounds were set here for any values at or beyond the usual limits of such assays
run.parameters: source organism: SARS coronavirus Tor2
Here pKd is given on a logarithmic scale as minus log10 of the concentration in mol/L.

[[record]]
primary_sequence = "SMQNCLLRLK"
tested_system = "HLA-A*03:01"
readout_number = 8.00

[[record]]
primary_sequence = "AIYVFCISLK"
tested_system = "HLA-A*03:01"
readout_number = 6.79

[[record]]
primary_sequence = "FFTYLCGFIK"
tested_system = "HLA-A*03:01"
readout_number = 6.36

[[record]]
primary_sequence = "GVTFQGKFKK"
tested_system = "HLA-A*03:01"
readout_number = 6.12


Would you kindly look at the next entry?
**Q:** Output measured pKd for this item: AVVYRGTTTY
**A:** 6.91

* * *

tested.system: HLA-B*40:02
procedure.text: IEDB peptide-MHC binding, purified MHC/competitive/radioactivity; filed as Kd, often an IC50 or EC50 that approximates it; bounds were set here for any values at or beyond the usual limits of such assays
run.parameters: source organism: SARS coronavirus Tor2
Cut-off 0.2 µM on Kd: below means y, at or above means n.

[[record]]
primary_sequence = "IDYVPLKSAT"
tested_system = "HLA-B*40:02"
label = "n"

[[record]]
primary_sequence = "KETLYRIDG"
tested_system = "HLA-B*40:02"
label = "n"

[[record]]
primary_sequence = "WEPEFYEAMY"
tested_system = "HLA-B*40:02"
label = "n"


**Q:** Does this sequence meet the criterion Kd < 0.2 µM? KELSPRWYF
**A:** y

**Q:** Does this sequence meet the criterion Kd < 0.2 µM? EETFKLSYGI
**A:** y

**Q:** Does this sequence meet the criterion Kd < 0.2 µM? HEDLMAAYV
**A:** n

**Q:** Does this sequence meet the criterion Kd < 0.2 µM? NELSLALGL
**A:** y

**Q:** Does this sequence meet the criterion Kd < 0.2 µM? EEAIRHVRAW
**A:** n

* * *

// reported pKd for each item listed
tested.system: HLA-A*02:06
procedure.text: IEDB peptide-MHC binding, purified MHC/competitive/radioactivity; filed as Kd, often an IC50 or EC50 that approximates it; bounds were set here for any values at or beyond the usual limits of such assays
run.parameters: source organism: Vaccinia virus WR
Here pKd is given on a logarithmic scale as minus log10 of the concentration in mol/L.

Examples from the recorded data:
[[record]]
primary_sequence = "ILHNIYRLFT"
tested_system = "HLA-A*02:06"
readout_number = 5.92

[[record]]
primary_sequence = "LLNMRDLIVT"
tested_system = "HLA-A*02:06"
readout_number = 6.15

[[record]]
primary_sequence = "SLFIESSICL"
tested_system = "HLA-A*02:06"
readout_number = 6.01

[[record]]
primary_sequence = "IIDLLLPST"
tested_system = "HLA-A*02:06"
readout_number = 5.95

[[record]]
primary_sequence = "YQSFLFWFL"
tested_system = "HLA-A*02:06"
readout_number = 7.40


Would you kindly look at the next entry?
**Q:** Output measured pKd for this item: SMSQELAELL
**A:** 6.32

* * *

tested.system: HLA-A*68:01
procedure.text: IEDB peptide-MHC binding, purified MHC/competitive/radioactivity; filed as Kd, often an IC50 or EC50 that approximates it; bounds were set here for any values at or beyond the usual limits of such assays
run.parameters: source organism: Vaccinia virus Copenhagen
readout.name: Kd (nM)
Only the number, expressed in nM, is required.

Examples from the recorded data:
[[record]]
primary_sequence = "SLLKETIQK"
readout_number = 3480

[[record]]
primary_sequence = "YTFAISYCR"
readout_number = 0.418


Would you kindly look at the next entry?
**Q:** Output measured Kd for this item: ILARRPTPKK
**A:** 2390

* * *

tested.system: HLA-A*31:01
procedure.text: IEDB peptide-MHC binding, purified MHC/competitive/radioactivity; filed as Kd, often an IC50 or EC50 that approximates it; bounds were set here for any values at or beyond the usual limits of such assays
run.parameters: source organism: Vaccinia virus WR
Please use the following Kd ranges when assigning a class: low class = under 80 nM, middle class = from 80 nM up to 1000 nM, high class = 1000 nM and over

[[record]]
primary_sequence = "DLTQIFEVY"
label = "high class"

[[record]]
primary_sequence = "NVTLFYCDER"
label = "middle class"

[[record]]
primary_sequence = "MTLVPVLEKK"
label = "middle class"

[[record]]
primary_sequence = "FMVSVSDFR"
label = "low class"

[[record]]
primary_sequence = "STSAADIKR"
label = "high class"


**Q:** Please classify: QLLKILDNLR
**A:** low class

**Q:** Please classify: LARRPTPKK
**A:** low class

**Q:** Please classify: VSDLYTSMR
**A:** high class

**Q:** Please classify: SVSAKQLRTR
**A:** middle class

**Q:** Please classify: IILANERYR
**A:** middle class

**Q:** Please classify: CANGWIQYDK
**A:** low class

**Q:** Please classify: QQFANVISK
**A:** high class

* * *

tested.system: HLA-B*44:02
procedure.text: IEDB peptide-MHC binding, purified MHC/competitive/radioactivity; filed as Kd, often an IC50 or EC50 that approximates it; bounds were set here for any values at or beyond the usual limits of such assays
run.parameters: source organism: SARS coronavirus Tor2
readout.name: Kd (µM)
Only the number, expressed in µM, is required.

Examples from the recorded data:
[[record]]
primary_sequence = "AEIVDTVSAL"
tested_system = "HLA-B*44:02"
readout_number = 0.0864

[[record]]
primary_sequence = "EETFKLSYGI"
tested_system = "HLA-B*44:02"
readout_number = 0.076

[[record]]
primary_sequence = "KELSPRWYF"
tested_system = "HLA-B*44:02"
readout_number = 0.0634


**Q:** Output measured Kd for this item: WEPEFYEAMY
**A:** 2.22

* * *

tested.system: HLA-A*31:01
procedure.text: IEDB peptide-MHC binding, purified MHC/competitive/radioactivity; filed as Kd, often an IC50 or EC50 that approximates it; bounds were set here for any values at or beyond the usual limits of such assays
run.parameters: source organism: Vaccinia virus WR
readout.name: pKd
Here pKd is given on a logarithmic scale as minus log10 of the concentration in mol/L.

Examples from the recorded data:
[[record]]
primary_sequence = "RLFRSPQVK"
readout_name = "pKd"
readout_number = 5.30

[[record]]
primary_sequence = "MVIENGILKK"
readout_name = "pKd"
readout_number = 5.31

[[record]]
primary_sequence = "DIALALEQY"
readout_name = "pKd"
readout_number = 4.98


**Q:** Output measured pKd for this item: VILFIMFMLI
**A:** 6.89

**Q:** Output measured pKd for this item: DTSASEIKDR
**A:** 5.10

**Q:** Output measured pKd for this item: LMYALEPRK
**A:** 5.25
